Listing of entries alongside the reported normalized RNA/DNA level without ligand (log10).
B1: library; a variant is named by its letters at N, in order (parent)
chain: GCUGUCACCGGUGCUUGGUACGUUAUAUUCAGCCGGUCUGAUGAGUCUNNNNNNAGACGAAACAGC

- Variants of: B1
- Assay name: normalized RNA/DNA level without ligand (relative to sTRSVctl = 100) (log10 (% of sTRSVctl)); HEK293T overexpressing SLC46A1; higher = less ribozyme self-cleavage, higher mRNA level
- Conditions used: without (6R,S)-folinic acid; ligand present: no

# count of solved cases: 5
> print(dat)
                           polymer.sequence  reported.measurement
1  GCUGUCACCGGUGCUUGGUACGUUAUAUUCAGCCGGUCUGAUGAGUCUGUAACCAGACGAAACAGC                  2.06
2  GCUGUCACCGGUGCUUGGUACGUUAUAUUCAGCCGGUCUGAUGAGUCUAGGAAGAGACGAAACAGC                  1.89
3  GCUGUCACCGGUGCUUGGUACGUUAUAUUCAGCCGGUCUGAUGAGUCUACACCAAGACGAAACAGC                  2.03
4  GCUGUCACCGGUGCUUGGUACGUUAUAUUCAGCCGGUCUGAUGAGUCUACAGGGAGACGAAACAGC                   1.7
5  GCUGUCACCGGUGCUUGGUACGUUAUAUUCAGCCGGUCUGAUGAGUCUCCCUCAAGACGAAACAGC                  2.06

(Q) Which normalized RNA/DNA level without ligand (log10) value is on record for `GCUGUCACCGGUGCUUGGUACGUUAUAUUCAGCCGGUCUGAUGAGUCUUGCUAUAGACGAAACAGC` ?
(A) 1.99

(Q) Which normalized RNA/DNA level without ligand (log10) value is on record for `GCUGUCACCGGUGCUUGGUACGUUAUAUUCAGCCGGUCUGAUGAGUCUUGAUACAGACGAAACAGC` ?
(A) 1.98

(Q) Which normalized RNA/DNA level without ligand (log10) value is on record for `GCUGUCACCGGUGCUUGGUACGUUAUAUUCAGCCGGUCUGAUGAGUCUGAGACAAGACGAAACAGC` ?
(A) 1.98
